Biological target: CYP1A2 (Homo sapiens, UniProt P05177)
Sequence (P05177 whole entry): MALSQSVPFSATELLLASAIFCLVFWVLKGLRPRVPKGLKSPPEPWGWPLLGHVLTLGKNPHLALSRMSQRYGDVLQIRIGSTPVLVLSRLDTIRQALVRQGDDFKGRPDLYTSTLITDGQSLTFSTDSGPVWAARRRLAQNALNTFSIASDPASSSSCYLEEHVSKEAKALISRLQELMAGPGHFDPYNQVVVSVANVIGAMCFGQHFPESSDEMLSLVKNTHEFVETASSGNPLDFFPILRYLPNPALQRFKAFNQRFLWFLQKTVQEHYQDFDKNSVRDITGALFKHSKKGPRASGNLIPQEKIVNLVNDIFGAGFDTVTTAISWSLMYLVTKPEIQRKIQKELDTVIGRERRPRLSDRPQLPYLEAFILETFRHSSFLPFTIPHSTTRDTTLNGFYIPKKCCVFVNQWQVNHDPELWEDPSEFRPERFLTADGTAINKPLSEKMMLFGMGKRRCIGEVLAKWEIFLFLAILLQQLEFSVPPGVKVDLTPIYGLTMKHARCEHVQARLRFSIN
Assay: clinical
Details: male, plasma, oral, Cmax, Placebo + caffeine 100 mg day 13, n = 14, arithmetic mean (CV%)
Could you please report measured Cmax for the items listed next?
One number for each entry, in ng/mL.

INSERT INTO results (smiles_code, assay_system, readout_name, quantitative_result) VALUES
  ('Cn1c(=O)[nH]c2ncn(C)c2c1=O', 'CYP1A2 (Homo sapiens, UniProt P05177)', 'Cmax', 577);

Switching to the query record.
Reading of Cmax for "Cn1c(=O)c2c(ncn2C)n(C)c1=O" with CYP1A2 (Homo sapiens, UniProt P05177): 2150

These entries and their values trace back to paper PMC8453848.
